TARGET_DESC: Glucocorticoid receptor (Homo sapiens)
Sequence (P04150 whole entry): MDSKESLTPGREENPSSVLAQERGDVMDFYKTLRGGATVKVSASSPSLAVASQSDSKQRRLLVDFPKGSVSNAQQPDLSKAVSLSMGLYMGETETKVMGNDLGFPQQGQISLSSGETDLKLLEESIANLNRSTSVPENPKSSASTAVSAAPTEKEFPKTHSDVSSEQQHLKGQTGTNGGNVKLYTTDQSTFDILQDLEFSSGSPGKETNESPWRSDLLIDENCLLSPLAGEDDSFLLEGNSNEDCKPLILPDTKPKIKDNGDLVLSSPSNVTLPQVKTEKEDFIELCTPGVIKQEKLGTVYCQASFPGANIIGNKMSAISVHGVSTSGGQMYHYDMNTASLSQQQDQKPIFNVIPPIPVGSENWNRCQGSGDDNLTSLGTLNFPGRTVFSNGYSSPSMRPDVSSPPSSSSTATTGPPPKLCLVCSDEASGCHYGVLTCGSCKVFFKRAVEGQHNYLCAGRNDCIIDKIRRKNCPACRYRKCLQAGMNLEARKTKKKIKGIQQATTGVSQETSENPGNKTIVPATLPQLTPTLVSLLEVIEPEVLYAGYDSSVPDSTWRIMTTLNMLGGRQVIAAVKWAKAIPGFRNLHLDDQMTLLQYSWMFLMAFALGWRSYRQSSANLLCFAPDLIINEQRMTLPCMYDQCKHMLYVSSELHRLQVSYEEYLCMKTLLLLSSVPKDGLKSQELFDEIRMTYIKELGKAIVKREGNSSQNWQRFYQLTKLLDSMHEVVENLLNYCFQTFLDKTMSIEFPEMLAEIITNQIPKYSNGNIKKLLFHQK
PROCEDURE_TEXT: Antagonist activity at glucocorticoid receptor in human HeLa cells assessed as reduction in dexamethasone-induced luciferase activity by dual-Glo luciferase assay

>  <QUERY_SMILES>
O=c1cc(C(F)(F)F)c2ccc(OCc3ccc(Br)cc3)cc2o1

>  <TARGET_DESC>
Glucocorticoid receptor (Homo sapiens)

>  <IC50>
> 10 µM

$$$$

###

TARGET_DESC: Androgen receptor (Homo sapiens, UniProt P10275)
Sequence (P10275 whole entry): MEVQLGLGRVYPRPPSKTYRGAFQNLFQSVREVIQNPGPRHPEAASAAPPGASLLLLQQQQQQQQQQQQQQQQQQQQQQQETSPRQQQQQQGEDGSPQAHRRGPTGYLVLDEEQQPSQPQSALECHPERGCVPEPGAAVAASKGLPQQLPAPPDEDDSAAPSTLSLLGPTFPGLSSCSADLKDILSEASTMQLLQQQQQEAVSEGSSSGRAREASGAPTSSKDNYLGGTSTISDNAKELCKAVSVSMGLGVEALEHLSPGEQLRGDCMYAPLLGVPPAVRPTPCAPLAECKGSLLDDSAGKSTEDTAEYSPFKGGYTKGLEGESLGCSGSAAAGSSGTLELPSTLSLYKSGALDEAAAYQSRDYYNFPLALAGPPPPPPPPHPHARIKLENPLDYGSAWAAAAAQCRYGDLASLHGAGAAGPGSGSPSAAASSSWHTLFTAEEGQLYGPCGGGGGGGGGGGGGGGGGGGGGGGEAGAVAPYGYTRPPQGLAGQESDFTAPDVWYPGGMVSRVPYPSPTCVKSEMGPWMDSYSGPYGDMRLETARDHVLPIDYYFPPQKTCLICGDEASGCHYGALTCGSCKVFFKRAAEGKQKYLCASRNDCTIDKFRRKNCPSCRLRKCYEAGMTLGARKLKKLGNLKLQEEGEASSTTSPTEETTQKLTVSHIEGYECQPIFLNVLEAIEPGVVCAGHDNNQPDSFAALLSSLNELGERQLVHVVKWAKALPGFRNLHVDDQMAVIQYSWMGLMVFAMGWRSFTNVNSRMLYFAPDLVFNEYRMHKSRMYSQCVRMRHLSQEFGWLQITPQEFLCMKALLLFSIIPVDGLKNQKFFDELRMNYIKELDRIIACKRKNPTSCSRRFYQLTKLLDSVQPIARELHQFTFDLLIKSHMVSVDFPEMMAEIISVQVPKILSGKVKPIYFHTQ

>  <QUERY_SMILES>
O=c1cc(C(F)(F)F)c2ccc(/N=C/c3ccccc3O)cc2o1

>  <IC50, nM>
1660

$$$$
>  <QUERY_SMILES>
O=c1cc(C(F)(F)F)c2ccc(OCc3ccc(Br)cc3)cc2o1

>  <IC50, nM>
750

$$$$

FYI, the data here is from ChEMBL document CHEMBL5055679.
